- Test system: OVCAR-4 ovarian
- experimentDescription: NCI tumour cell line growth inhibition, 48 h
Reported GI50 by item:
reportedProperty: GI50

> print(dat)
                                   compound    result
1  CC1c2ccccc2N=C2SC(=S)N3CCN=C3N21 (stereo not given)  > 100 µM
2  O=[N+]([O-])c1ccc(-c2cc3c(Nc4ccc(Cl)c(C(F)(F)F)c4)ncnc3s2)cc1    1.2 µM
3  C/C1=C\CC[C@@](C)(O)[C@@H]2C[C@H](CC/C(C)=C/CC1)C1(CC1)C(=O)O2   26.3 µM
4  COc1ccc(-c2cnoc2-c2cc(OC)c3c(c2)OCCO3)cc1     14 µM
5  COc1ccc(Nc2nccc(N3CCN(c4c5ccc(Cl)cc5nc5ccc(OC)cc45)CC3)n2)cc1   18.2 µM

Values were extracted from PubChem BioAssay (NCI).
